From: paper PMC4072508

study.system: T1, Bfl-1, Q16548
T1 chain: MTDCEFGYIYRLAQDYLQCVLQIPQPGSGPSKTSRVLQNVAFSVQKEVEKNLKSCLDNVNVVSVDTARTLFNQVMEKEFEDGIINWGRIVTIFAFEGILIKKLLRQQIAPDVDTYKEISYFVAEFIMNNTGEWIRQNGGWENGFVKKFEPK
measurement.protocol: peptide SPOT array, c-Myc-tagged receptor at 1 uM or 100 nM, anti-c-Myc-Cy3
assay.readout: SPOT signal as a fraction of Bim BH3's signal on the same receptor and array

[P] TIHFNQRGTRLASSGDDLRVIVWDWV [DCAF8L1]
[Q] HQAEVQIARKLQCILDQFHRLHVQQH [BMF]
Min SPOT signal as a fraction of Bim BH3's signal on the same receptor and array? P | Q // return label of chosen record
P
(P: 0.04, Q: 0.1)

[A] SQGKHGFTMAMNAFLDMTNEEFRQMM [CTSL2]
[B] MSILTIASAVLEFVLDGIYNNTMGHV [TAP1]
[C] VAGYRESAAFLLRSADELENLILQQN [NOL4]
[D] SSTMGQVGRQLAIILDDINRRYDSEF
[E] FKAWGKFGGAFCRYADEMKEIQERQR [PURB]
Order the records by SPOT signal as a fraction of Bim BH3's signal on the same receptor and array, with each subsequent value no larger than the one before. Your task in answering is to list the labels in the requested order.
E, A, B, C, D
(E: 1.05, A: 0.06, B: 0.04, C: 0.02, D: 0.01)

[a] RKDAELLCWDLRQSLYPLWSLGREVT
[b] RLRQLGVAKKFGVLSDNFKGKRIVLV [PPAT]
Of a and b , which shows the smaller SPOT signal as a fraction of Bim BH3's signal on the same receptor and array value? Mark your answer with the label of the selected entry.
a
(a: 0.05, b: 0.64)

[1] RKDAELLCWDDRQSGYPLWSLGREVT
[2] LRGSGAWGLLLRRVGDDVLVHLLARC [TERT]
[3] SSTMGQVGRQDAIIGDDINRRYDSEF
[4] PYLSKHRADRDRRLGDFLNQESFDLA [SMPD2]
Highest SPOT signal as a fraction of Bim BH3's signal on the same receptor and array first, then in falling order down to the smallest. // ordering of labels required in reply
4, 2, 1, 3

[P] ERLKGQLCDVLLIVGDQKFRAHKNVL [ZNF295]
[Q] ELDEDDLEAELDALLDELLADEDSSY [CHMP5]
[R] TDENKKVGLALKDLAKQYSDRLECCE [NUB1]
[S] CQGDTVISECLQRFADSLQEVVNYHM [ACAP3]
[T] EKNLPKMAEALAHGADVNWANSEENK [ACAP2]
Sort ascending by SPOT signal as a fraction of Bim BH3's signal on the same receptor and array. Rank the items, then write their labels in that order.
T, R, Q, S, P

[a] NDDTPWIARTLDNLLDELTAILSAPA [GBP6]
[b] KFMKTIPGTALVEMGDEYAVERAVTH [HNRPLL]
Looking only at measured SPOT signal as a fraction of Bim BH3's signal on the same receptor and array, which entry is lower, a or b ? Use the label to indicate which entry you chose.
b

[1] VLLTLLVAAVLRCQGQDVQEAGSCVQ
[2] VDSIRPKCQELRHLCDQFSAEIARRR [MCF2L]
Short answer wanted: higher SPOT signal as a fraction of Bim BH3's signal on the same receptor and array, 1 or 2 ? Please indicate the selected item by its label.
2
(2: 0.21, 1: 0.04)

[A] VLLTLLVAAVDRCQGQDVQEAGSCVQ
[B] DQEEACASRQLHSLASFSTVTARRNP [INCA1]
Hi, I'm comparing A with B and wondering which one has the bigger number for SPOT signal as a fraction of Bim BH3's signal on the same receptor and array. Any idea? Reply briefly: the label of your chosen item.
B
(B: 0.35, A: 0.03)
